System: ACHN renal
test description: NCI-60 one-dose screen, 48 h (100 = growth as untreated, 0 = no growth, -100 = all killed)
particulars: 10 µM unless noted
Compounds without any hit were thinned out: in the full panel of roughly 83,000, 20% have a hit.
growth overview
Value expressed in %; do not type the unit.

// solved cases for growth follow
{"columns": ["compound", "growth, %"],
 "data": [
  ["CCCOc1ccc(-c2nc(-c3ccc(N)cc3)cs2)cc1", 97.1],
  ["C=CCCCCCCCCC(=O)OC(C)C", 107],
  ["CCOC(=O)C1=C(C(=O)c2ccc(Br)cc2)C(c2ccc(Br)cc2)NC(=S)N1 (stereo not given)", 97.6],
  ["Cn1cc(-c2noc(-c3cn(C)c4ncc(Br)cc34)n2)c2cc(Cl)ccc21", 31.8],
  ["COc1ccc2nc3ccccc3c(NCCNCCO)c2c1", -27.4],
  ["O=C1Cc2c(sc3c(F)cccc23)C(c2ccccc2[N+](=O)[O-])N1 (stereo not given)", 101],
  ["N#Cc1c(N2CCOCC2)nc(=S)[nH]c1-c1ccco1", 64.2],
  ["O=[N+]([O-])c1cc([N+](=O)[O-])c(C(F)(F)F)cc1NN=C(c1ccc(O)cc1)c1ccc(O)cc1", 12.8]
]}

What does the record list as growth for Cc1cc(-c2ccc(N=Nc3c(S(=O)(=O)O)cc4cc(S(=O)(=O)O)cc(N)c4c3O)c(C)c2)ccc1N=Nc1cc(S(=O)(=O)O)c2ccccc2c1O ?
95.4

Then COc1ccc(-c2nc3ccccn3c2/C=C/C(=O)c2cc(OC)c(OC)c(OC)c2)cc1OC ?
19.9
